# Assayed system: T1, full-length recombinant mouse PAD4 (mouse, UniProt Q9Z183 1-666)
# T1 construct: mature; Full-length recombinant
# T1 sequence (Q9Z183 whole entry): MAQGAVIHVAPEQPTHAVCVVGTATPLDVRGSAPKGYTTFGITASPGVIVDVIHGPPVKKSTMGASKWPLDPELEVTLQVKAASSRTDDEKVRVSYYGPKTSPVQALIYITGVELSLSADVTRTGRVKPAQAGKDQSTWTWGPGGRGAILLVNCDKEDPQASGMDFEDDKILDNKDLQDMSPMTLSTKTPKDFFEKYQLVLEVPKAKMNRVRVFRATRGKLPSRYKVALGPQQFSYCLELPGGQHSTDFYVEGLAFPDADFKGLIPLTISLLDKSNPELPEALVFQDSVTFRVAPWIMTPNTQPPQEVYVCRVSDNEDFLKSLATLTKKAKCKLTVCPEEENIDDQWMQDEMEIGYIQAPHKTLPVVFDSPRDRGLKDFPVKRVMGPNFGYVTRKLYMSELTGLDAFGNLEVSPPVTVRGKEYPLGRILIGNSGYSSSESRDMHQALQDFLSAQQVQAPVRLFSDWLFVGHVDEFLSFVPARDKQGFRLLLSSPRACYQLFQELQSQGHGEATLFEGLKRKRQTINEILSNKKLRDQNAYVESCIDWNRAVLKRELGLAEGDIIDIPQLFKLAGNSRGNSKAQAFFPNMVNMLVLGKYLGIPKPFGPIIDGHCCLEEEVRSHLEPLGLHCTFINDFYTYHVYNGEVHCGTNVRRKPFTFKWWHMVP
# Test method notes: ELISA, coated mouse PAD4; antibody 0.0009766 ug/mL

Binder | OD 490/630 nm
G6 (antibody, V domains shown, Chicken variable regions in a mouse chimeric antibody (IgG1); also called anti-PAD4 antibody G6) VH: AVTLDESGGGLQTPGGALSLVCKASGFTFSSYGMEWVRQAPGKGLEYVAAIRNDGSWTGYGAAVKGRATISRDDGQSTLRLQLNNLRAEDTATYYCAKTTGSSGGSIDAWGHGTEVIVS VL: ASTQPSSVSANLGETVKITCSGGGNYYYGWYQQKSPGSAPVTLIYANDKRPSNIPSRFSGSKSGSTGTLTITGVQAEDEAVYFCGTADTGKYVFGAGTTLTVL | 0.2
G9 (antibody, V domains shown, Chicken variable regions in a mouse chimeric antibody (IgG1); also called anti-PAD4 antibody G9) VH: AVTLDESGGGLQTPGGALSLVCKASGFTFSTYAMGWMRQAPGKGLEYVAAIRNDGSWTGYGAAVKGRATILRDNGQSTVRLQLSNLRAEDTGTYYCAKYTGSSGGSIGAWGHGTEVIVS VL: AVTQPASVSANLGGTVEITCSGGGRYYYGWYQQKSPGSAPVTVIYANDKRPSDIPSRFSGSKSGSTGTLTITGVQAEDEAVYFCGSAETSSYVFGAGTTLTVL | 0.542
A11 (antibody, V domains shown, Chicken variable regions in a mouse chimeric antibody (IgG1); also called anti-PAD4 antibody A11) VH: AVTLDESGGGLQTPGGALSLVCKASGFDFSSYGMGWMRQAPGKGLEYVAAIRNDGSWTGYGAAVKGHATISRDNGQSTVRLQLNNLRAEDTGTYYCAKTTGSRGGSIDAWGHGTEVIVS VL: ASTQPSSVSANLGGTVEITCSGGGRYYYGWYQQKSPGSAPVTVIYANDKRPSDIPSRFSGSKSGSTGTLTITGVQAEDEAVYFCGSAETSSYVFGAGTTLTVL | 0.386
H7 (antibody, V domains shown, Chicken variable regions in a mouse chimeric antibody (IgG1); also called anti-PAD4 antibody H7) VH: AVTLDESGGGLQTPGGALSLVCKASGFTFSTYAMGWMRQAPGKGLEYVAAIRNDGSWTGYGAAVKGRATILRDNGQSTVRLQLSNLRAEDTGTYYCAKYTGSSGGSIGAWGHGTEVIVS VL: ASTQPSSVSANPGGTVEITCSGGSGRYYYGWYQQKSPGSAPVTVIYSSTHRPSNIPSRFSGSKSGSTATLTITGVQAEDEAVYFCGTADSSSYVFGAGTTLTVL | 0.55
E9 (antibody, V domains shown, Chicken variable regions in a mouse chimeric antibody (IgG1); also called anti-PAD4 antibody E9) VH: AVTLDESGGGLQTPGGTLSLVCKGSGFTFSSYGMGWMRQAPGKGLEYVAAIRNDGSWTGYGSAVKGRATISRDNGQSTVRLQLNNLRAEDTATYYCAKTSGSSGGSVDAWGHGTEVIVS VL: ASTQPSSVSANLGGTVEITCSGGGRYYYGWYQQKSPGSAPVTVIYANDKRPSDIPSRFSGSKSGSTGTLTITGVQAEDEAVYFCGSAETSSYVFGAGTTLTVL | 0.416
G8 (antibody, V domains shown, Chicken variable regions in a mouse chimeric antibody (IgG1); also called anti-PAD4 antibody G8) VH: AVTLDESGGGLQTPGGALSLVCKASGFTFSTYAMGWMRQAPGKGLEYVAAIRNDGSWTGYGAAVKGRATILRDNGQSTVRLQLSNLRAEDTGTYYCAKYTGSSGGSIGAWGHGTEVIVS VL: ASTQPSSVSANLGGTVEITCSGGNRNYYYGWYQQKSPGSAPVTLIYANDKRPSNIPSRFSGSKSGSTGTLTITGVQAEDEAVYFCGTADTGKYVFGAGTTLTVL | 0.555
